assayed system: HLA-A*02:11
assay summary: IEDB peptide-MHC binding, purified MHC/direct/fluorescence; filed as Kd, often an IC50 or EC50 that approximates it; bounds were set here for any values at or beyond the usual limits of such assays
measurement context: source organism: Campylobacter jejuni
observable: Kd

Summary line: `YWDQVTFFY` , HLA-A*02:11, reported Kd = ≥ 20 µM

---

For each record, write down the corresponding Kd.
assayed system: HLA-B*15:01
assay summary: IEDB peptide-MHC binding, purified MHC/direct/fluorescence; filed as Kd, often an IC50 or EC50 that approximates it; bounds were set here for any values at or beyond the usual limits of such assays
measurement context: source organism: Campylobacter jejuni

GET /value?item= `YWDQVTFFY` &field=Kd returns ≥ 20 µM

Consider `SLNLAKEAV` . Its measured Kd is ≥ 34 µM
